Target: T1, human GPVI extracellular region-human Fc fusion protein (hGPVI-hFc) (human)
T1 construct: Expressed in COS-1, purified on Protein A; also called GPVI-HHH-hFc; hGPVIHHH-hFc
T1 sequence (chain, as listed by the source limits assumed): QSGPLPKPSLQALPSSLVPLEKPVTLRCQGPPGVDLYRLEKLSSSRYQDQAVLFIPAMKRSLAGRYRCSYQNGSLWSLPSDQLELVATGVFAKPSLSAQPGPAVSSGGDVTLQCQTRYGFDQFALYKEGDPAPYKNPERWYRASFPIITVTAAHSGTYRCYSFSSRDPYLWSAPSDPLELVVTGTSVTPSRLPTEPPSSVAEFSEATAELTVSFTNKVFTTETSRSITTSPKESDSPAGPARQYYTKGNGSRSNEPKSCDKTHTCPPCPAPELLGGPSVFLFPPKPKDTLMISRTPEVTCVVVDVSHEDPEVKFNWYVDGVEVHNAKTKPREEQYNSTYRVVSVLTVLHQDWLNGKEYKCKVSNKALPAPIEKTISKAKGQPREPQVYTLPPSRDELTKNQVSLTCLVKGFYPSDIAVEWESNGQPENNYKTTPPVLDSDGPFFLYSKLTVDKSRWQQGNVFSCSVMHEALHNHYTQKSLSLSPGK
Assay: SPR (BIACORE3000), GPVI-Fc on CM5 chip, antibody 1.25-40 nM as analyte, bivalent analyte fit
Entries and their pKd
The read-out pKd is expressed as -log10 of concentration in moles per litre.

In: Name the recorded pKd of the binder listed here: F1201-18 (antibody, V domains shown, Mouse hybridoma monoclonal antibody) VH: VQLVESGGGLVKPGGSLKLSCAASGFTFSSYAMSWVRQTPEKRLEWVAIISSGGSYTYYPDSVKGRFTISRDNAKNTLYLHMSSLRSEDTAMYYCARQGGGYFDYWGQGTTLTVSS VL: DIVLTQSPASLAVSLGQRATISCRASESVDSYGNSFMHWYQQKPGQPPKLLIYRASNVESGIPARFSGSGSRTDFTLTINPVEADDVATYYCQQSNEDPPTFGAGTKLELKR
Out: 8.94

In: Name the recorded pKd of the binder listed here: F1232-37-2 (antibody, V domains shown, Mouse hybridoma monoclonal antibody; also called F1232-37-2 antibody; F1232-37-2 whole antibody) VH: VQLQQSGPELVRPGESVKISCKGSGYTFTDYAIHWVKLSHAKSLEWIGVISIYYDDTNYNQKFKGKATMTVDKSSSTAYLELARLTSEDSAIYYCARRRDSSGPYAMDYWGQGTSVTVSS VL: DIVLTQSPASLAVSLGQRATISCRASESVDSYGNSFMHWYQQKPGQPPKLLIYRASNLESGIPARFSGSGSRTDFTLTINPVEADDVATYYCQQSNEDPYTFGGGTKLEIKR
Out: 9.39

Please examine the following record next.
In: Name the recorded pKd of the binder listed here: F1232-7-1 (antibody, V domains shown, Mouse hybridoma monoclonal antibody; also called F1232-7-1 antibody) VH: VQLQQSGPELVRPGESVKISCKGSGYTFTDYAIHWVKLSHAKSLEWIGVISIYYDDTNYNQKFKGKATMTVDKSSSTAYMELARLTSEDSAIYYCARRRDSSGPYAMDYWGQGTSVTVSS VL: DIVLTQSPASLAVSLGQRATISCRASESVDSYGNSFMHWYQQKPGQPPKLLIYRASNLESGIPARFSGSGSRTDFTLTINPVEADDVATYYCQQSNEDPYTFGGGTKLEIKR
Out: 7.46

Data provenance: patent US20090041783A1
